- ASSAYED TARGET: Fibroblast growth factor 2 (Homo sapiens)
- PROTOCOL: basic fibroblast growth factor binding to printed compounds – biochemical, small-molecule microarray, 635/667 nm fluorescence, primary screen (AID 1133)
- MEASUREMENT SETUP: FGF2, fluorescence 635/667, higher = more signal
MEASURED QUANTITY: composite z-score
Lab note: jot down the number only; don't add units.

Would you please look over these solved cases?
COMPOUND | MEASURED QUANTITY | REPORTED VALUE
NCCCCCCNC(=O)[C@@H]1C[C@@H]2C(=O)N3CCC[C@H]3C(=O)N2[C@@H]1c1cccc(OCCO)c1 | composite z-score | 1.16
[N-]=[N+]=Nc1ccccc1[C@@H]1OC(c2ccc(OCCCO)cc2)=N[C@]1(Cc1ccccc1)C(=O)NCCN1CCOCC1 | composite z-score | -0.155

Bench note: what composite z-score did C[N+](C)(C)CCCCNC(=O)[C@H]1C[C@H]2C(=O)N[C@@H](Cc3ccccc3)C(=O)N2[C@H]1c1cccc(OCCO)c1 show?
1.87

Bench note: what composite z-score did COCCOC(=O)N1C(=O)[C@@]2(c3cc(C#CCC(C(=O)OC)C(=O)OC)ccc31)[C@H](c1ccc(O)cc1)N1[C@H](c3ccccc3)[C@H](c3ccccc3)OC(=O)[C@H]1[C@@H]2C(=O)Nc1nc2ccccc2s1 show?
1.54

Bench note: what composite z-score did COc1ccc([Si](C)(C)[C@H]2[C@H](CC(=O)N3CCC[C@H]3CO)O[C@@]3(C(=O)N(Cc4ccc(N5CCCCC5=O)cc4)c4ccccc43)[C@@H]2C)cc1 show?
1.17

Bench note: what composite z-score did O=C(NC1CC1)[C@@H]1c2ccccc2C(=O)N(Cc2ccc(OC(F)(F)F)cc2)[C@H]1c1ccc(CO)cc1 show?
0.668

Bench note: what composite z-score did COCCCNC(=O)[C@@]1(Sc2ccc(C)cc2)CC(=O)N(Cc2ccccc2C(F)(F)F)[C@@H]1c1ccc(CO)cc1I show?
-1.5

Bench note: what composite z-score did COc1cc(OC)c(C(O)C2C=CC3C(=O)N(c4ccccc4)C(=O)C3N2Nc2ccc(C(C)C)cc2)cc1Br (centres undefined) show?
0.0421

Bench note: what composite z-score did CC(C)c1nc2cc(Br)ccc2c(=O)o1 show?
-0.357

Bench note: what composite z-score did CCCCCCc1nc(Cc2cc(OC)c(OC)c(OC)c2)cc2c1[Si](C(C)C)(C(C)C)O[C@H]2c1ccccc1 show?
0.675

Bench note: what composite z-score did CC1CC/C=C\[C@H]2OC34C=CCN(c5ccc6ccccc6c5)C(=O)[C@H]3N(C(C)CO)C(=O)[C@@H]4C2C(=O)O1 (some centres undefined) show?
-0.911

---

- PROTOCOL: probe aCHRDL2 binding to arrayed compounds – biochemical, biotinylated probe, 635/667 nm fluorescence, primary screen (AID 1100)
- MEASUREMENT SETUP: small-molecule microarray, higher = more signal
Items are presented alongside their recorded composite z-score.
Lab note: jot down the number only; don't add units.

Would you please look over these solved cases?
LINE NOTATION | composite z-score
O=C1O[C@@H](c2ccccc2)[C@@H](c2ccccc2)N2[C@@H](c3ccccc3OCCO)[C@]3(C(=O)Nc4ccc(C#CCCO)cc43)[C@@H](C(=O)NC[C@H](O)c3ccccc3)[C@H]12 | 1.51
O=C(NCCN1CCOCC1)[C@@H]1c2ccccc2C(=O)N(Cc2ccc(OC(F)(F)F)cc2)[C@H]1c1ccc(CO)cc1 | 1.18
COCCCN1C(=O)[C@@]2(c3ccc([N+](=O)[O-])cc3)CC(=O)N(CC34CC5CC(CC(C5)C3)C4)[C@@H]2c2ccc(CO)cc21 | -0.0705

Kindly review the next molecule as well.
Bench note: what composite z-score did C=C(CCCC)/C(=C/C[C@H](OC(=O)c1ccncc1)c1cccc(OCCO)c1)c1cnc2ccccc2c1 show?
-0.303
